Record type: Ki measurement. Applies to: human FLAP (Homo sapiens (Human), UniProt P20292)
Structures can show the parent of a compound that is named as a salt.
Entry rule: numbers only, all in nM.

Check out these entries, answers already filled in.
Compound	Ki [nM]
Cn1ccc(COc2ccc3nc(C4CCCC[C@H]4C(=O)O)n(Cc4cccc(N5CC(F)(F)C5)c4)c3c2)n1 (mixture of isomers) [Example 205, trifluoroacetic acid salt]	21
CCC(CC)(Cc1nc2ccc(OCc3ncc(C)cc3F)cc2n1Cc1ccc(N2CCC(C(F)(F)F)CC2)cc1)C(=O)O	5.7
Cc1ccc(COc2cc(F)c3nc(CC4(C(=O)O)CCCC4)n(Cc4cccc(Br)c4)c3c2)nc1	73
Cc1ccc(COc2ccc3nc(C4CCCC[C@H]4C(=O)O)n(Cc4cccc(N5CCCC(F)(F)C5)c4)c3c2)nc1 (mixture of isomers)	3.8
Cc1cnc(COc2ccc3nc(C4CCCC[C@H]4C(=O)O)n(Cc4ccc(N5CCC(C(F)(F)F)CC5)cc4F)c3c2)c(F)c1 (mixture of isomers)	0.95
CCC(CC)(Cc1nc2ccc(OCc3ccn(C)n3)cc2n1Cc1cccc(N2CCC(F)(F)C2)c1)C(=O)O	35
Cc1ccc(COc2ccc3nc(C4CCCC[C@H]4C(=O)O)n(Cc4cccc(Br)c4)c3c2)nc1 (mixture of isomers)	6.8
Cn1ccc(COc2ccc3nc(C4CCCC[C@H]4C(=O)O)n(Cc4cc(Br)ccc4F)c3c2)n1 (mixture of isomers)	35
Cc1ccc(COc2cc(F)c3nc(CC4(C(=O)O)CCCC4)n(Cc4ccccc4Br)c3c2)nc1	180
Cc1ccc(COc2ccc3nc(C4CCCC[C@H]4C(=O)O)n(Cc4ccccc4C)c3c2)nc1 (mixture of isomers)	31

Entry CCC(CC)(Cc1nc2ccc(OCc3ccc(C)cn3)cc2n1Cc1ccc(N2CCC(F)(F)C2)cc1)C(=O)O , tested on human FLAP (Homo sapiens (Human), UniProt P20292), has a reported Ki of 17

human FLAP (Homo sapiens (Human), UniProt P20292) Ki of Cc1ccc(COc2ccc3nc(C4CCCC[C@H]4C(=O)O)n(Cc4cccc(C)c4)c3c2)nc1 (mixture of isomers) is 30
